system name: adrenergic beta2 (Homo sapiens, UniProt P07550)
Sequence (P07550 whole entry): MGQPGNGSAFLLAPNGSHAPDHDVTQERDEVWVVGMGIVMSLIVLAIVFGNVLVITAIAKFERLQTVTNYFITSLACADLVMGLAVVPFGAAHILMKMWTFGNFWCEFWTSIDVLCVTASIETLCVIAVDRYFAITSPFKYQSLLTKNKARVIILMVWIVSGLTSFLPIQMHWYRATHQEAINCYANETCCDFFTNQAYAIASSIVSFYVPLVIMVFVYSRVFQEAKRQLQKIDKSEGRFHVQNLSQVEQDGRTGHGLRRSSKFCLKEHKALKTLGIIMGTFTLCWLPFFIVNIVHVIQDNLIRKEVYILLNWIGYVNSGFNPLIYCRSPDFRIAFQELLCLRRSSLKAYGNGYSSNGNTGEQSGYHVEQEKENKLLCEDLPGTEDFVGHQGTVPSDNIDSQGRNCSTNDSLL
measured property: pKi
Answers are plain numbers, as −log10 of the molar value.

# input // pKi lookup, key: CCN(CCCNC(=O)c1ccc(-c2ccncc2)cc1)CCNC(=O)c1cc(I)cc(OC)c1OC [HY-3-24]
# output 5.23

###

system name: Muscarinic M2 (Homo sapiens)
Sequence (P08172 1-466): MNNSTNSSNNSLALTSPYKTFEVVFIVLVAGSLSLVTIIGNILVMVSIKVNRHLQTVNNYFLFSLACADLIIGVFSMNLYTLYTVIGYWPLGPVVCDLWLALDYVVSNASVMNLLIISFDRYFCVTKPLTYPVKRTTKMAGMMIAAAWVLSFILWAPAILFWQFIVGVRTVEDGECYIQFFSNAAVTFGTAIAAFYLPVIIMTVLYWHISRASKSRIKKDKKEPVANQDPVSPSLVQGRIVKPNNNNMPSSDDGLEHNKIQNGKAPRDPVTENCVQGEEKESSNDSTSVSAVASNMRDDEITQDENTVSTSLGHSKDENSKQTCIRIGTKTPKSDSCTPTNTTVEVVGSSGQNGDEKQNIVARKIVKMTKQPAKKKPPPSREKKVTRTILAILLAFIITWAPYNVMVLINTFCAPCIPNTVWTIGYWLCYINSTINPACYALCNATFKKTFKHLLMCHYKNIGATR
measured property: pKi
Answers are plain numbers, as −log10 of the molar value.

# input Form: Entry = CCN(CCCNC(=O)c1ccc(-c2ccncc2)cc1)CCNC(=O)c1cc(I)cc(OC)c1OC [HY-3-24] | System = Muscarinic M2 (Homo sapiens) | pKi = ____
# output 6.08

###

system name: UniProtKB P35462
Sequence (P35462 whole entry): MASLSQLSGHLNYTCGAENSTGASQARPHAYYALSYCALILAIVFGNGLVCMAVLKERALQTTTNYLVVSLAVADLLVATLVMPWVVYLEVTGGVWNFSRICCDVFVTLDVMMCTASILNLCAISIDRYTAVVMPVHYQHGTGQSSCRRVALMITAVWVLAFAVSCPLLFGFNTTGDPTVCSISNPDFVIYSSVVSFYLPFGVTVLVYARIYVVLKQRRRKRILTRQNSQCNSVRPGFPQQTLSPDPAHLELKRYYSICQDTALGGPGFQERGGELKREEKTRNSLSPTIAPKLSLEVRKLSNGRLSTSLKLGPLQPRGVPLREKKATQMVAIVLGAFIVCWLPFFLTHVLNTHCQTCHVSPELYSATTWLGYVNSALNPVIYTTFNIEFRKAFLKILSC
measured property: pKi
Give bare numbers, as −log10 of the molar value.

# input // pKi lookup, key: CCN(CCCNC(=O)c1ccc(-c2ccncc2)cc1)CCNC(=O)c1cc(I)cc(OC)c1OC [HY-3-24]
# output 9.17

###

Target sequence: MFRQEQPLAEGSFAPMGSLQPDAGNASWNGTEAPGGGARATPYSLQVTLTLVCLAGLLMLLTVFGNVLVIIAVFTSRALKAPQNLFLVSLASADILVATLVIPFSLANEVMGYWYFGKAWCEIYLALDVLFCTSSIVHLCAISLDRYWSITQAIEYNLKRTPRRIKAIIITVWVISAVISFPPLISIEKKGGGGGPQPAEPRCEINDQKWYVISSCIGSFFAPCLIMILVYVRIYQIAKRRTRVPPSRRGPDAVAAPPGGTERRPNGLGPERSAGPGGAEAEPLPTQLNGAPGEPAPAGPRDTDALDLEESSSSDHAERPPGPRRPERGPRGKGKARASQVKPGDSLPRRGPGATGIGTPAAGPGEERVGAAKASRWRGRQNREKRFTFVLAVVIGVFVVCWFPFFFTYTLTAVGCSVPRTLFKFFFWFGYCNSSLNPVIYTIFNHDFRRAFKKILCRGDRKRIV
measured property: pKi
Give bare numbers, as −log10 of the molar value.

# input // pKi lookup, key: "CCN(CCCNC(=O)c1ccc(-c2ccncc2)cc1)CCNC(=O)c1cc(I)cc(OC)c1OC"
# output 5.67

###

system name: serotonin 5-HT6 (Homo sapiens)
Sequence (P50406 whole entry): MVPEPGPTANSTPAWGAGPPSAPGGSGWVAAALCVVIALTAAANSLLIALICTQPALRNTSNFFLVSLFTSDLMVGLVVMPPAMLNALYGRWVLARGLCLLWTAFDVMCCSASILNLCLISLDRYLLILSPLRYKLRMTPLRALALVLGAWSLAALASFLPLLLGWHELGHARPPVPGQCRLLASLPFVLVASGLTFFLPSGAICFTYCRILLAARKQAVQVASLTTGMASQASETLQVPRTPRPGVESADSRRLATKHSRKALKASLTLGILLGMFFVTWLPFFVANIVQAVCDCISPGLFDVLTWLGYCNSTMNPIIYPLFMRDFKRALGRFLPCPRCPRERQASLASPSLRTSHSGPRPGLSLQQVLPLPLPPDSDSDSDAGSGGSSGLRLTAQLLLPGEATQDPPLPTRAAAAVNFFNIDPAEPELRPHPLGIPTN
measured property: pKi
Give bare numbers, as −log10 of the molar value.

# input // pKi lookup, key: "CCN(CCCNC(=O)c1ccc(-c2ccncc2)cc1)CCNC(=O)c1cc(I)cc(OC)c1OC"
# output 5.98
